- Assay target: ligand-binding domain of RORγ (RORγ-LBD) (Homo sapiens)
- Construct: purchased Invitrogen
- Assay details: Inhibitory effect on RORγ-coactivator binding (LanthaScreen TR-FRET RORγ Coactivator Assay)
- Condition parameters: at 33 μmol/L of the test compound; read-out: RORγ-coactivator binding inhibition rate (%)
Readout: inhibition at 33 µM (%)
Numbers only here, please. The scale is %.

The following compounds have reported results that may help.
| Compound | Endpoint value |
| --- | --- |
| CN(CC(=O)N1CCCCC1C(=O)Nc1ccc(-c2ccccc2OC(F)(F)F)c(F)c1)S(C)(=O)=O (centres unmarked) | 100 |
| NC(=O)N1CCCC[C@@H]1C(=O)Nc1ccc(-c2ccccc2OC(F)(F)F)c(Cl)c1 | 92.4 |
| COC(=O)N1CCCCC1C(=O)Nc1ccc(-c2ccccc2OC(F)(F)F)c(Cl)c1 (centres unmarked) | 93.4 |

Request: Identify measured inhibition at 33 µM associated with O=C(Nc1ccc(-c2ccccc2OC(F)(F)F)c(Cl)c1)C1CCCCN1C(=O)c1cn[nH]c1 (centres unmarked)
Result: 102

Request: # return recorded inhibition at 33 µM for entry CN(CC(=O)N1CCCCC1C(=O)Nc1ccc(-c2ccccc2OC(F)(F)F)c(Cl)c1)S(C)(=O)=O (centres unmarked)
Result: 101

Request: Input CN(CC(=O)N1CCCC[C@@H]1C(=O)Nc1ccc(-c2ccccc2OC(F)(F)F)c(Cl)c1)S(C)(=O)=O , output reported inhibition at 33 µM.
Result: 101

Request: Return the recorded inhibition at 33 µM value; entry: O=C(Nc1ccc(-c2ccccc2OC(F)(F)F)c(Cl)c1)[C@H]1CCCCN1C(=O)CCn1ccnc1
Result: 95.5

Request: Report inhibition at 33 µM for COC(=O)CC(=O)N1CCCCC1C(=O)Nc1ccc(-c2ccccc2OC(F)(F)F)c(Cl)c1 (centres unmarked)
Result: 99

Request: Give reported inhibition at 33 µM value for CN(CCC(=O)N1CCCCC1C(=O)Nc1ccc(-c2ccccc2OC(F)(F)F)c(Cl)c1)S(C)(=O)=O (centres unmarked)
Result: 97.2

Request: Return value of inhibition at 33 µM for input CC(=O)N1CCCC[C@@H]1C(=O)Nc1ccc(-c2ccccc2OC(F)(F)F)c(Cl)c1 , no commentary.
Result: 101

Request: Look up and report measured inhibition at 33 µM for this entry: CCS(=O)(=O)N1CCCCC1C(=O)Nc1ccc(-c2ccccc2OC(F)(F)F)c(Cl)c1 (centres unmarked)
Result: 94

====

We begin with a simple list: items and their reported inhibition at 33 µM.
- Assay target: ligand-binding domain of RORγ (RORγ-LBD) (Homo sapiens)
- Construct: purchased Invitrogen
- Assay details: Inhibitory effect on RORγ-coactivator binding (LanthaScreen TR-FRET RORγ Coactivator Assay)
- Condition parameters: at 33 μmol/L of the test compound; read-out: RORγ-coactivator binding inhibition rate (%)
Answer format: number, then unit.

Illustrative cases are given below, each with its answer.
| Molecule | inhibition at 33 µM |
| --- | --- |
| CS(=O)(=O)N1CCC(F)(F)C[C@@H]1C(=O)Nc1ccc(-c2ccccc2OC(F)(F)F)c(Cl)c1 [Example 28] | 101% |
| CCC(=O)N1CCCCC1C(=O)Nc1ccc(-c2ccccc2OC(F)(F)F)c(Cl)c1 (centres unmarked) [Example 3] | 88.2% |
| O=C(Nc1ccc(-c2ccccc2OC(F)(F)F)c(Cl)c1)[C@H]1CCCCN1C(=O)C(F)(F)F [Example 23] | 98.4% |
| CC(=O)N1CCCCC1C(=O)Nc1ccc(-c2ccccc2OC(F)(F)F)c(Cl)c1 (centres unmarked) [Example 1] | 90.9% |
| Cc1nnc(CC(=O)N2CCCC[C@@H]2C(=O)Nc2ccc(-c3ccccc3OC(F)(F)F)c(Cl)c2)o1 [Example 67] | 99.1% |

Request: Report inhibition at 33 µM under test system ligand-binding domain of RORγ (RORγ-LBD) (Homo sapiens) for O=C(Nc1ccc(-c2ccccc2OC(F)(F)F)c(Cl)c1)C1CCCCN1C(=O)C(F)(F)F (centres unmarked) [Example 2] .
Result: 91.9%

Request: Provide the reported inhibition at 33 µM (system: ligand-binding domain of RORγ (RORγ-LBD) (Homo sapiens)) for CN(C)C(=O)N1CCCCC1C(=O)Nc1ccc(-c2ccccc2OC(F)(F)F)c(Cl)c1 (centres unmarked) [Example 18]
Result: 95.9%

Request: Output reported inhibition at 33 µM of the molecule O=C(Nc1ccc(-c2ccccc2OC(F)(F)F)c(Cl)c1)C1CCCCN1C(=O)Cn1ccnc1 (centres unmarked) [Example 52] on ligand-binding domain of RORγ (RORγ-LBD) (Homo sapiens).
Result: 97.3%

====

- Assay target: ligand-binding domain of RORγ (RORγ-LBD) (Homo sapiens, UniProt P51449)
- Construct: purchased Invitrogen
- Sequence (P51449 269-508 limits assumed): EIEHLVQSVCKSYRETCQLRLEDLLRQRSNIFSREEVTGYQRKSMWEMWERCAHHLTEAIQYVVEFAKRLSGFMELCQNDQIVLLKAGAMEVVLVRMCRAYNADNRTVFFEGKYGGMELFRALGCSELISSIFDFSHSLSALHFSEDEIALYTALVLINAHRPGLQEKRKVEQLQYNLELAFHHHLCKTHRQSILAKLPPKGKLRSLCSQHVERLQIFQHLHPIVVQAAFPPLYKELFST
- Assay details: Inhibitory effect on RORγ-coactivator binding (LanthaScreen TR-FRET RORγ Coactivator Assay)
- Condition parameters: at 33 μmol/L of the test compound; read-out: RORγ-coactivator binding inhibition rate (%)
Readout: inhibition at 33 µM (%)
Write the answer as a number in %, unit excluded.

Example cases with answers are listed next.
| Compound | Units label | Endpoint value |
| --- | --- | --- |
| Cn1cc(C(=O)N2CCCCC2C(=O)Nc2ccc(-c3ccccc3OC(F)(F)F)c(Cl)c2)cn1 (stereo not drawn) [Example 46] | % | 99.3 |
| NC(=O)N1CCCCC1C(=O)Nc1ccc(-c2ccccc2OC(F)(F)F)c(Cl)c1 (stereo not drawn) [Example 17] | % | 93.8 |
| Cc1ccn(CCC(=O)N2CCCC[C@@H]2C(=O)Nc2ccc(-c3ccccc3OC(F)(F)F)c(Cl)c2)n1 [Example 60] | % | 93.6 |
| O=C(Nc1ccc(-c2ccccc2OC(F)(F)F)c(Cl)c1)C1CCCCN1C(=O)Cn1cnnn1 (stereo not drawn) [Example 53] | % | 105 |
| O=C(Nc1ccc(-c2ccccc2OC(F)(F)F)c(Cl)c1)[C@H]1CCCCN1C(=O)Cn1cnnn1 [Example 57] | % | 103 |
| O=C(Nc1ccc(-c2ccccc2OC(F)(F)F)c(Cl)c1)[C@H]1CCCCN1C(=O)Cn1ccnn1 [Example 64] | % | 97.3 |
| Cc1cc(CC(=O)N2CCCCC2C(=O)Nc2ccc(-c3ccccc3OC(F)(F)F)c(Cl)c2)on1 (stereo not drawn) [Example 56] | % | 104 |
| COCCC(=O)N1CCCCC1C(=O)Nc1ccc(-c2ccccc2OC(F)(F)F)c(Cl)c1 (stereo not drawn) [Example 45] | % | 92 |
| CSCCC(=O)N1CCCCC1C(=O)Nc1ccc(-c2ccccc2OC(F)(F)F)c(Cl)c1 (stereo not drawn) [Example 39] | % | 98.8 |
| O=C(Nc1ccc(-c2ccccc2OC(F)(F)F)c(Cl)c1)C1CCCCN1C(=O)Cc1ccco1 (stereo not drawn) [Example 54] | % | 102 |

Request: Report inhibition at 33 µM for Cn1ccnc1CC(=O)N1CCCCC1C(=O)Nc1ccc(-c2ccccc2OC(F)(F)F)c(Cl)c1 (stereo not drawn) [Example 50]
Result: 101

Request: Complete the entry with inhibition at 33 µM for O=C(Nc1ccc(-c2ccccc2OC(F)(F)F)c(Cl)c1)C1CCCCN1C(=O)CO (stereo not drawn) [Example 5]
Result: 96.9

Request: Input COC(=O)CCC(=O)N1CCCCC1C(=O)Nc1ccc(-c2ccccc2OC(F)(F)F)c(Cl)c1 (stereo not drawn) [Example 44] , output reported inhibition at 33 µM.
Result: 97.1

Request: Quick one: give measured inhibition at 33 µM for CS(=O)(=O)NCC(=O)N1CCCCC1C(=O)Nc1ccc(-c2ccccc2OC(F)(F)F)c(Cl)c1 (stereo not drawn) [Example 10]
Result: 100

Request: Retrieve inhibition at 33 µM measured for CCN(CC(=O)N1CCCCC1C(=O)Nc1ccc(-c2ccccc2OC(F)(F)F)c(Cl)c1)S(C)(=O)=O (stereo not drawn) [Example 37] and print it.
Result: 104
